Source of measurements: PubChem BioAssay (NCI)

tested on: 786-0 renal; experiment: NCI tumour cell line growth inhibition, 48 h
endpoint name: TGI

Example entries begin here.
COC(=O)C1=C(OC(=O)/C=C/c2ccc(Cl)cc2)C(C(=O)OC)[C@]2(O)[C@@H](C(=O)OC)[C@H]1C[C@@H](c1ccccc1)[C@@H]2C(=O)OC (stereo not given in full) :: > 25.2 µM
NS(=O)(=O)c1nnc(NC(=O)c2cccc([N+](=O)[O-])c2)s1 :: > 100 µM
CC(C)CC(NP(=O)(O)OC1OC(C)C(O)C(O)C1O)C(=O)NC(Cc1c[nH]c2ccccc12)C(=O)O (stereo not given) :: > 100 µM

Req: Entry O=c1c2ccccc2nc(-c2ccccc2Cl)n1-c1nnc(C(F)(F)F)s1 : reported TGI = ?
Resp: 11.4 µM

Req: Fill blank: measured TGI of the compound Cc1cc(C)c2c(c1)N[S@@](=O)S2 is ____.
Resp: 28.9 µM

Req: Fill in the blank: the reported TGI of CCN(CC)CCC(CNc1ccnc2cc(Cl)ccc12)c1ccccc1 (stereo not given) is ____.
Resp: 13.5 µM

====

tested on: CAKI-1 renal; experiment: NCI tumour cell line growth inhibition, 48 h
endpoint name: GI50

Please review the following examples before continuing.
Cc1c(-c2ccc(O)cc2)oc(=O)c2ccc(O)cc12 :: 22.4 µM
COc1ccc2nc(-c3ccccc3)cc(Nc3cccc(C(C)=O)c3)c2c1 :: 12.6 µM

Req: For the molecule shown here, C[C@@H](Nc1nc(Nc2ccc(F)c(Cl)c2)nc2c(C3=CCNCC3)cccc12)C1CC1 , give the reported GI50.
Resp: 1.58 µM

Req: Which GI50 value is on record for O=C(Nc1ccccc1C(F)(F)F)c1ccc(NC2=C(Cl)C(=O)N(Cc3ccccc3)C2=O)cc1 ?
Resp: 1.97 µM

Req: Consider the molecule shown here: CCOC(=O)/C(C#N)=C1\SS/C(=C(/C#N)C(=O)OCC)S1 What is its recorded GI50?
Resp: 4.38 µM

Req: // GI50 lookup, key: ClCc1ccc(Cn2cnc3c(Cl)ncnc32)cc1
Resp: 2.26 µM

Req: Tell me the measured GI50 of CCN(CC)CCN1C(=O)C2C3C(=O)CC(C)(CC3C)C2C1=O (stereo not given) , please.
Resp: > 100 µM

Req: Looking for the measured GI50 of C[C@@H](NC(=O)c1ncnc(N)c1Cl)c1ncc(C(=O)Nc2cc(C(F)(F)F)c(Cl)cn2)s1 , can you help?
Resp: 25.4 µM

Req: Reported GI50, molecule C/C(=N\n1c(O)c(C#N)cc(C#N)c1=O)c1ccncc1 : ____
Resp: > 100 µM

Req: Suppose we examine the molecule Cc1nc(-c2cnc(NC(C)C)n(C)c2=O)ccc1Oc1ccnc(-c2cnn(C)c2)c1 ; what GI50 value has been reported?
Resp: 7.51 µM

====

tested on: SF-268 CNS; experiment: NCI tumour cell line growth inhibition, 48 h; in the data active = GI50 below about 0.43 µM; inactive = the rest
Write down the outcome that applies. Available outcomes: TRUE for active, FALSE for inactive

Req: State the result this test recorded for Cc1ccc(-c2nc(N3CCNCC3)c3oc(-c4ccccc4)nc3n2)cc1 .
Resp: FALSE

Req: Answer briefly: the call reported for Cc1ccc(NC(=O)Nc2c(Cl)cccc2Cl)cn1 in this assay.
Resp: FALSE

Req: How was CCOC(=O)/C(C#N)=C1\SS/C(=C(/C#N)C(=O)OCC)S1 classified in this test?
Resp: FALSE
